biological target: T1, human MET ECD (human, UniProt P08581 25-932); experiment: ELISA, MET ECD coated, mAb 0-20 nM
T1 construct: range 1-932; recombinant; range as printed includes the signal peptide; also called hMET; hMET ECD
T1 sequence (P08581 25-932 limits assumed, form in doubt): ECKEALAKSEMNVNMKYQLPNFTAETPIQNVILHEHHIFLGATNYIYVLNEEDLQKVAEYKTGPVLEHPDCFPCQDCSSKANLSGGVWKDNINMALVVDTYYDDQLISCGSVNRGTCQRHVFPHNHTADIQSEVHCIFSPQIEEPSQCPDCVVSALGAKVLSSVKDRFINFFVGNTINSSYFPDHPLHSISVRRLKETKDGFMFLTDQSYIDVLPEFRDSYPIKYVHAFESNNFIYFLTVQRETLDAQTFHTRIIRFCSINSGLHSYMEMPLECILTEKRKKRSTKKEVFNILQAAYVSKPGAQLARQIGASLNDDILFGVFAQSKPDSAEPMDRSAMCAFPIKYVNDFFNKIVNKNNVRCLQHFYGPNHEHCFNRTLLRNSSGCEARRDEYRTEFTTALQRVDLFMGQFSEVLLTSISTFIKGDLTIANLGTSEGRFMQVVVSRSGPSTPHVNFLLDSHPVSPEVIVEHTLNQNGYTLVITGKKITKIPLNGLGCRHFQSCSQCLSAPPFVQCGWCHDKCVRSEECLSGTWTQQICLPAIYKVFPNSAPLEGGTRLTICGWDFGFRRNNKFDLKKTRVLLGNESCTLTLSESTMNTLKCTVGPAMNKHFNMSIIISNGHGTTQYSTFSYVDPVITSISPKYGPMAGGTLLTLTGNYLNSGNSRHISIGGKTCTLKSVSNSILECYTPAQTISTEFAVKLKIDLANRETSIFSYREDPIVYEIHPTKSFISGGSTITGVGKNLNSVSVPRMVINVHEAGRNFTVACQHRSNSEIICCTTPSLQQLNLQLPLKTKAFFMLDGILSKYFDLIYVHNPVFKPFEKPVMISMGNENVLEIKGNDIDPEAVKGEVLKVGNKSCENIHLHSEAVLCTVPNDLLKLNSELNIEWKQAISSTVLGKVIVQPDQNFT
Listed binders paired with reported EMAX
Express your answer in OD450 AU, writing the number without its unit.

Worked examples follow.
binder: 71G3 chimeric llama-human IgG1 mAb (antibody, V domains shown, human IgG1 CH1-CH2-CH3 and human CL lambda; also called 71G3 Human IgG1/lambda) VH: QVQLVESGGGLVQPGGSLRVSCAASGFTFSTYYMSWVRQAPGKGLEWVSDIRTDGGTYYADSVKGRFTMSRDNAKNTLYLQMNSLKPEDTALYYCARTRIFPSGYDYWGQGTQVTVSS VL: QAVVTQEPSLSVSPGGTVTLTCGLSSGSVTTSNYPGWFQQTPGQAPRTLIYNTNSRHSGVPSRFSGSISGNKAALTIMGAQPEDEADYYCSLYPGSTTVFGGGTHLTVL
metric name: EMAX
reported result: 2.83
//
binder: 76G7 chimeric llama-human IgG1 mAb (antibody, V domains shown, human IgG1 CH1-CH2-CH3 and human CL lambda) VH: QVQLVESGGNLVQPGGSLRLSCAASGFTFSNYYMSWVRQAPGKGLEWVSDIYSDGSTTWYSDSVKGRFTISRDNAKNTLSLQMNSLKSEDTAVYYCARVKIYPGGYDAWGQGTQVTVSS VL: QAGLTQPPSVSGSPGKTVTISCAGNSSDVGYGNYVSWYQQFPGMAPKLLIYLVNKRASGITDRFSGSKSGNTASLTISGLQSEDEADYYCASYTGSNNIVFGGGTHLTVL
metric name: EMAX
reported result: 2.62
//
binder: 71G2 chimeric llama-human IgG1 mAb (antibody, V domains shown, human IgG1 CH1-CH2-CH3 and human CL lambda; also called 71G2 Human IgG1/lambda) VH: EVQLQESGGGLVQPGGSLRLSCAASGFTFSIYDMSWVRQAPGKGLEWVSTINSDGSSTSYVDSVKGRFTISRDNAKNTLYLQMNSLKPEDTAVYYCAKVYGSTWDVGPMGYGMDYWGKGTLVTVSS VL: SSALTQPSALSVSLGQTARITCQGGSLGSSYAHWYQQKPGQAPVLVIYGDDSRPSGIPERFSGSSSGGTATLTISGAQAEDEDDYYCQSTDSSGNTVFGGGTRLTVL
metric name: EMAX
reported result: 3.09
//
binder: 74C8 chimeric llama-human IgG1 mAb (antibody, V domains shown, human IgG1 CH1-CH2-CH3 and human CL lambda) VH: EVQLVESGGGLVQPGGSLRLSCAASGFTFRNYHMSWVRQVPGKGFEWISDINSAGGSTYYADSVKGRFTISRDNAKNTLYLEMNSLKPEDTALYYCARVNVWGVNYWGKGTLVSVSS VL: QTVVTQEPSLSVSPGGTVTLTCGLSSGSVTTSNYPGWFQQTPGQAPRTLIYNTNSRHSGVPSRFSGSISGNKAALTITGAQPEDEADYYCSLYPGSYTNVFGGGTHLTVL
metric name: EMAX
reported result: 0.994

Please examine the following record next.
Given item 71D6 chimeric llama-human IgG1 mAb (antibody, V domains shown, human IgG1 CH1-CH2-CH3 and human CL lambda; also called 71D6 Human IgG1/lambda) VH: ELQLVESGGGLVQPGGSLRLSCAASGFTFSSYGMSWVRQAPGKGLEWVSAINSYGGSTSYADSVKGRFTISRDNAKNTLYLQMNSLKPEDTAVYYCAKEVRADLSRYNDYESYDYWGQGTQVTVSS VL: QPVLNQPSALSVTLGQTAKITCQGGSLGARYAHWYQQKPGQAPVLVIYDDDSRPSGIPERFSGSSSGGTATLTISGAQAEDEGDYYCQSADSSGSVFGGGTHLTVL , the value recorded as its EMAX is 2.08
